All figures here come from paper PMC8217266.

- target-entity: human OATP2B1 (Homo sapiens, UniProt O94956)
- Sequence (O94956 1-709): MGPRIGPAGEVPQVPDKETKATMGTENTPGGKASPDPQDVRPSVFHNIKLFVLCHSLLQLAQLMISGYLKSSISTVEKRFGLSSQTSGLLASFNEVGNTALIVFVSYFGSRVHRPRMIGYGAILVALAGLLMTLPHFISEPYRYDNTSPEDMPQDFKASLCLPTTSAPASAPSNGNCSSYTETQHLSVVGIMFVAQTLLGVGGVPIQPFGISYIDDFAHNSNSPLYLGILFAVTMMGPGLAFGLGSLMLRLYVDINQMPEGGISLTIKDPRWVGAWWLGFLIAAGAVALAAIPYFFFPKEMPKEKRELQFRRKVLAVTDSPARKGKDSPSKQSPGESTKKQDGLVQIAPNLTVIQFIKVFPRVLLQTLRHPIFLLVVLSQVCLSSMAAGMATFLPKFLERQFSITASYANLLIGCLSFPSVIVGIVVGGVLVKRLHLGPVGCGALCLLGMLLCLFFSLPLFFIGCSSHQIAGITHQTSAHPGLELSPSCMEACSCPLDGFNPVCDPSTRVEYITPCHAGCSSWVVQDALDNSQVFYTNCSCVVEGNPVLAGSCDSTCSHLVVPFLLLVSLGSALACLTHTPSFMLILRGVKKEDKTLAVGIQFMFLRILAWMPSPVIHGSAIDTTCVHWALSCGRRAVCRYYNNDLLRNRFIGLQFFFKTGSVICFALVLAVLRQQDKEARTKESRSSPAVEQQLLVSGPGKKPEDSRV
pIC50: −log10 of the molar value.
Reported pIC50 values follow for various molecules
measured-endpoint: pIC50

>>> df
                                   molecule  measured_endpoint  measured
0  Cc1oncc1C(=O)Nc1ccc(C(F)(F)F)cc1 [Leflunomide]              pIC50      4.09
1  CCCc1nn(C)c2c(=O)[nH]c(-c3cc(S(=O)(=O)N4CCN(C)CC4)ccc3OCC)nc12              pIC50      4.41
2  CCC(CC)COC(=O)[C@H](C)N[P@](=O)(OC[C@H]1O[C@@](C#N)(c2ccc3c(N)ncnn23)[C@H](O)[C@@H]1O)Oc1ccccc1              pIC50      5.46
3  CC(C)CN(C[C@@H](O)[C@H](Cc1ccccc1)NC(=O)O[C@H]1CO[C@H]2OCC[C@H]21)S(=O)(=O)c1ccc(N)cc1              pIC50      4.51
